test: Human HepG2 cell viability assay in 384 well format; assay type: toxicity, cell-based; set-up: dose 125 nL, time 70.5 hour; concentration not given beside the values; settings: HepG2 cells, read-out: Inhibition

{"Molecule": "O=C1CC[C@@H]2[C@@H](CCN2S(=O)(=O)C2CC2)N1CC1CC1", "cytotoxicity at 70.5 h": "18.2%"}
{"Molecule": "CCN(CCc1nc2cc(C)ccc2[nH]1)C(=O)COC", "cytotoxicity at 70.5 h": "-4.93%"}
{"Molecule": "CC(C)C(=O)Nc1ccc(Sc2nncn2C)c(Cl)c1", "cytotoxicity at 70.5 h": "-16%"}
{"Molecule": "Cc1csc(C2(NCc3nnc(-c4ccco4)o3)CCCC2)n1", "cytotoxicity at 70.5 h": "0.188%"}
{"Molecule": "O=C(NCC1CC1)C1CCCN(c2cccc(C(F)(F)F)n2)C1 (stereo unspecified)", "cytotoxicity at 70.5 h": "19.6%"}
{"Molecule": "COCCN(C)C[C@@H]1CN(C(=O)c2c(C)cccc2OC)C[C@@H]1CO", "cytotoxicity at 70.5 h": "-4.17%"}
{"Molecule": "CCOC(=O)c1cccc(N2CCCC3(CCC(=O)N(C4CC4)C3)C2)n1 (stereo unspecified)", "cytotoxicity at 70.5 h": "-2.93%"}
{"Molecule": "COC(=O)CCNC(=O)c1ccc(OCc2ccccc2)nc1", "cytotoxicity at 70.5 h": "-6.92%"}
{"Molecule": "Cc1nc(N(C)C)cc(C2(C)CCNCC2)n1", "cytotoxicity at 70.5 h": "-1.8%"}
{"Molecule": "CN1CC2(CCNCC2)COc2ccccc2S1(=O)=O", "cytotoxicity at 70.5 h": "-2.93%"}
{"Molecule": "COc1ccc(CC(=O)N(C)C2CCN(C)C2=O)cc1F (stereo unspecified)", "cytotoxicity at 70.5 h": "-6.33%"}

---

assay: Human HepG2 cell viability assay in 384 well format; format: toxicity, cell-based; design: dose 125 nL, time 70.5 hour; concentration not given beside the values; conditions: HepG2 cells, read-out: Inhibition
Measured cytotoxicity at 70.5 h values are reported for all entries that follow.

{"Molecule": "COc1ccc(F)c(-c2cc(NCCO)nc(N)n2)c1", "Unit string": "%", "cytotoxicity at 70.5 h": -3.97}
{"Molecule": "CC(C)c1nccn1C1CCCN(C(=O)CCc2cscn2)C1 (stereo not given)", "Unit string": "%", "cytotoxicity at 70.5 h": -6.33}
{"Molecule": "COc1ccccc1CN(Cc1nc2c(cnn2C)c(=O)[nH]1)C1CC1", "Unit string": "%", "cytotoxicity at 70.5 h": 28.9}
{"Molecule": "CC1=Nc2c(c(=O)[nH]n2C(C)C)C(c2cccc(OC(F)F)c2)S1 (stereo not given)", "Unit string": "%", "cytotoxicity at 70.5 h": -17.2}
{"Molecule": "CCN1CCc2c(c(COC)nn2C)C1", "Unit string": "%", "cytotoxicity at 70.5 h": -10.5}
{"Molecule": "CC(=O)N[C@@H]1CN(C2CCN(c3cccc(Cl)c3)CC2)C[C@H]1C(C)C", "Unit string": "%", "cytotoxicity at 70.5 h": -7.17}
{"Molecule": "COc1ccc(N2CCN(CC[C@H](O)c3ccccc3)CC2=O)cc1", "Unit string": "%", "cytotoxicity at 70.5 h": -12.7}
{"Molecule": "O=c1cc(CN2CCC(CCc3ccc(O)cc3)CC2)[nH]c(=O)[nH]1", "Unit string": "%", "cytotoxicity at 70.5 h": -6.15}
{"Molecule": "CSCC(CCO)NC(=O)Nc1ccc(C)cc1C (stereo not given)", "Unit string": "%", "cytotoxicity at 70.5 h": -14.5}
{"Molecule": "Cn1cc(C(=O)OCC(N)=O)c(-c2ccc(F)cc2F)n1", "Unit string": "%", "cytotoxicity at 70.5 h": -7.24}
{"Molecule": "CCC(=O)Nc1ccccc1Sc1nc(Br)nn1C", "Unit string": "%", "cytotoxicity at 70.5 h": -8.59}
{"Molecule": "CN(C1CCN(c2ccccn2)CC1)S(=O)(=O)c1cccc(F)c1", "Unit string": "%", "cytotoxicity at 70.5 h": 2.86}
{"Molecule": "O=C(NC1CC1)NC(c1cc(F)ccc1F)C1CC1 (stereo not given)", "Unit string": "%", "cytotoxicity at 70.5 h": -5.9}
{"Molecule": "CC(OCC1CC1)C(=O)N1CCCN(c2cccnn2)CC1 (stereo not given)", "Unit string": "%", "cytotoxicity at 70.5 h": -5.5}
{"Molecule": "Fc1ccccc1CN1CCC(c2noc(-c3ccccn3)n2)CC1", "Unit string": "%", "cytotoxicity at 70.5 h": 1.88}
{"Molecule": "O=c1c(Cc2ccccc2)c(O)ccn1Cc1cccs1", "Unit string": "%", "cytotoxicity at 70.5 h": 23.3}
{"Molecule": "CC(C)Oc1ccc(CN2CCC(c3n[nH]c4ncccc34)CC2)cc1", "Unit string": "%", "cytotoxicity at 70.5 h": 21.4}
{"Molecule": "O=C(NCCC(=O)N1CCCC1)c1cccnc1", "Unit string": "%", "cytotoxicity at 70.5 h": 17.4}
{"Molecule": "Cc1cnn(CC2CCCN2C(=O)CCc2ccco2)c1 (stereo not given)", "Unit string": "%", "cytotoxicity at 70.5 h": -6.55}
{"Molecule": "CCNC(=O)c1cc(OC)c(OC)cc1N(C)S(C)(=O)=O", "Unit string": "%", "cytotoxicity at 70.5 h": -8.66}
{"Molecule": "CN(Cc1ccon1)C(=O)CN1C(=O)OC(C)(C)C1=O", "Unit string": "%", "cytotoxicity at 70.5 h": -11.5}
{"Molecule": "Cc1cc(N(C)C)nc(N2CCN(C(C)c3nc(C)no3)CC2)n1 (stereo not given)", "Unit string": "%", "cytotoxicity at 70.5 h": 22.7}
{"Molecule": "O=C(Cc1ccccc1)N1CC(=O)N(Cc2ccco2)CC(O)C1 (stereo not given)", "Unit string": "%", "cytotoxicity at 70.5 h": 0.111}
{"Molecule": "CN(CCS(=O)(=O)c1cc(Cl)ccc1Cl)CC(=O)Nc1cccc(F)c1", "Unit string": "%", "cytotoxicity at 70.5 h": -0.61}
{"Molecule": "CCCNc1ncc(CN2CCOC(Cc3cccc(F)c3)C2)cn1 (stereo not given)", "Unit string": "%", "cytotoxicity at 70.5 h": -10.7}
